TARGET: α1-adrenoceptors
MEASUREMENT DESCRIPTION: inhibition of tritiated ligand ([7-methoxy-^3 H]prazosin) binding to α1-adrenoceptors in vitro (whole cortical tissue)
Set-up: species or system rat (male Charles River CD)
CONDITIONS: rat whole cortical tissue, 30° C., 30 minutes, > from highest concentration which displaced ≤50% of the ligand
Counter-ions that a name gives are not always drawn.
RESULT TYPE: Ki (nM)
Give your result in nM as a bare value.

Illustrative cases are given below, each with its answer.
| COMPOUND | UOM | Ki |
| --- | --- | --- |
| c1ccc2c(c1)OCC(CNCC1CCN(c3ncnc4ccccc34)CC1)O2 (centres unmarked) [Example 4, dihydrochloride] | nM | 13 |
| Clc1cccnc1N1CCC(CNCC2COc3ccccc3O2)CC1 (centres unmarked) [Example 3, hydrochloride] | nM | 38 |
| COc1ccccc1N1CCC(CNCC2COc3cccc(OC)c3O2)CC1 (centres unmarked) [Example 6, dihydrochloride] | nM | 3.7 |
| Oc1cccc2c1CC(CNCC1CCN(c3ncccn3)CC1)CC2 (centres unmarked) [Example 10, dihydrobromide] | nM | 339 |
| COc1cccc2c1CC(CNCC1CCN(c3ncccn3)CC1)CO2 (centres unmarked) [Example 11, monofumarate] | nM | 31 |

The record that follows has no Ki shown yet.
Reported Ki of FC(F)(F)c1cccnc1NCCNCC1COc2ccccc2O1 (centres unmarked) [Example 8, dihydrochloride] : 14

###

TARGET: D2 dopamine receptors (Rattus norvegicus, UniProt P61169)
Sequence (P61169 whole entry): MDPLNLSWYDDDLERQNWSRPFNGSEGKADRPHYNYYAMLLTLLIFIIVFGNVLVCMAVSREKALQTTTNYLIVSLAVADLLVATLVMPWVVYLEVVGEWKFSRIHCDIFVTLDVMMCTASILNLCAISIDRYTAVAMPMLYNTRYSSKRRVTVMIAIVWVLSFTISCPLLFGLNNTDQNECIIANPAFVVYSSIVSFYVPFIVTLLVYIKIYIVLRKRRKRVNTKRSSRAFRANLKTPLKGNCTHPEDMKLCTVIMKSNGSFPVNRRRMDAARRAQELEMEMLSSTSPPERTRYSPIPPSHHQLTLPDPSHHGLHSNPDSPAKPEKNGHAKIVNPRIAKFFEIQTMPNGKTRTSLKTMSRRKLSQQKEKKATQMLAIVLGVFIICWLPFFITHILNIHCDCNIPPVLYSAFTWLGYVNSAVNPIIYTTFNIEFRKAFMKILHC
MEASUREMENT DESCRIPTION: biochemical
Assay type: binding, rat (male Charles River CD)
CONDITIONS: rat striatal tissue, tritiated (S)-sulpiride, 4° C., 40 minutes
Structures can show the parent of a compound that is named as a salt.
Could you mark each record met if its Ki falls strictly under 50 nM, and not met if it equals or exceeds it?

| MOLECULE | LABEL VALUE |
| --- | --- |
| COc1ccccc1NCCCNCC1COc2cccc(OC)c2O1.O=C(O)/C=C\C(=O)O (centres unmarked) [Example 17, maleate] | met |
| FC(F)(F)c1cccnc1NCCNCC1COc2ccccc2O1 (centres unmarked) [Example 8, dihydrochloride] | not met |
| COc1ccccc1N1CCC(CNCC2COc3cccc(OC)c3O2)CC1 (centres unmarked) [Example 6, dihydrochloride] | met |
| Clc1cccnc1N1CCC(CNCC2COc3ccccc3O2)CC1 (centres unmarked) [Example 3, hydrochloride] | met |
| COc1cccc2c1OC(CNCC1CCN(c3cccc4c3OCC4)CC1)CO2.Cl (centres unmarked) [Example 25, hydrochloride] | met |
| COc1ccccc1N1CCC(CNCC2COc3ccc4ccccc4c3O2)CC1 (centres unmarked) [Example 24, hydrate] | not met |
| Oc1cccc2c1CC(CNCC1CCN(c3ncccn3)CC1)CC2 (centres unmarked) [Example 10, dihydrobromide] | not met |

Kindly consider the entry below.
Incoming: Could you please tell me whether Ki recorded for COc1ccccc1N1CCC(CNCC2COc3ccccc3O2)CC1 (centres unmarked) [Example 2, dihydrochloride] is less than 50 nM?
Outgoing: met

###

TARGET: D2 dopamine receptors (Rattus norvegicus, UniProt P61169)
MEASUREMENT DESCRIPTION: biochemical
Format: binding, rat (male Charles River CD)
CONDITIONS: rat striatal tissue, tritiated (S)-sulpiride, 4° C., 40 minutes
Where a name gives a salt, the structure may show the parent alone.
RESULT TYPE: Ki (nM)
Answer format: numeric, nM implied, no suffix.

| MOLECULE | TARGET | Ki, nM |
| --- | --- | --- |
| c1ccc(N2CCC(CNCC3COc4ccccc4O3)CC2)nc1 (stereo not drawn) [Example 5, dihydrochloride] | D2 dopamine receptors (Rattus norvegicus, UniProt P61169) | 29 |
| COc1cccc2c1CC(CNCC1CCN(c3ncccn3)CC1)CO2 (stereo not drawn) [Example 11, monofumarate] | D2 dopamine receptors (Rattus norvegicus, UniProt P61169) | 12.9 |
| c1ccc2c(c1)OCC(CNCC1CCN(c3cnccn3)CC1)O2 (stereo not drawn) [Example 1, hydrochloride] | D2 dopamine receptors (Rattus norvegicus, UniProt P61169) | 15.6 |
| c1ccc2c(c1)OCC(CNCC1CCN(c3ncnc4ccccc34)CC1)O2 (stereo not drawn) [Example 4, dihydrochloride] | D2 dopamine receptors (Rattus norvegicus, UniProt P61169) | 35.8 |
| COc1cccc2c1CC(CNCC1CCN(c3ncccn3)CC1)CC2 (stereo not drawn) [Example 9, hydrochloride] | D2 dopamine receptors (Rattus norvegicus, UniProt P61169) | 46.4 |

Then this molecule:
Please fill in: Ki reported for Cl.Clc1ccccc1N1CCC(CNCC2COc3ccccc3O2)CC1 (stereo not drawn) [Example 22, hydrochloride] = 43.5
